# z-score values compiled below
target-entity: NADPH oxidase 5 (Homo sapiens) (UniProt Q96PH1)
Sequence (Q96PH1 whole entry, looked up): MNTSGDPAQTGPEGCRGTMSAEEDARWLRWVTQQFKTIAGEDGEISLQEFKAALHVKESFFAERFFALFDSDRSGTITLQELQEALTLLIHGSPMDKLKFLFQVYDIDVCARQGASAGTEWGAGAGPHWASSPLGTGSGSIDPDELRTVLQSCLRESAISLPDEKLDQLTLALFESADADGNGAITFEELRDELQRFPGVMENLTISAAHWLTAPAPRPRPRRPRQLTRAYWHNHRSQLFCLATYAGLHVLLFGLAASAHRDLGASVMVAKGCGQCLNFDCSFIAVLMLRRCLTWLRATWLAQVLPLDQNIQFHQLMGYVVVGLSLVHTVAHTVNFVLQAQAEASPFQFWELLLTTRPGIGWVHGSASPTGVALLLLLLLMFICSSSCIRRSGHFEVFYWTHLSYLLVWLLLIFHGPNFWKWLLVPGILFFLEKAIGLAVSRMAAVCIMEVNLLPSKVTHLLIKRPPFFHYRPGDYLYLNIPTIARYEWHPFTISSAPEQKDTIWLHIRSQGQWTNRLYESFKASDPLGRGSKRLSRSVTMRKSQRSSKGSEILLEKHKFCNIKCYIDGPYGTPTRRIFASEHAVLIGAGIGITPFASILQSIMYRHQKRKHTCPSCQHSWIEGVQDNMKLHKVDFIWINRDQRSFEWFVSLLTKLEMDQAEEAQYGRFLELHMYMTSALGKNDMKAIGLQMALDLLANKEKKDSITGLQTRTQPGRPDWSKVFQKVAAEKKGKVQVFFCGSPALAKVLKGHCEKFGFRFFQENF
assay-text: NOX5-dependent H2O2 signal modulators, primary screen, NOX inhibitor project, cell-based, HEK293-NOX5, Amplex Red fluorescence (AID 1161)
experimental-parameters: HEK293-NOX5, ionomycin, 45 min, higher = more signal
reported-metric: z-score

molecule	reported-metric	recorded-value
CC(C)C(O)C1C=CC2C(=O)N(c3ccccc3)C(=O)C2N1Nc1ccc([N+](=O)[O-])cc1 (stereo not drawn)	z-score	-1.23
CCCc1cc2c(n1Cc1cc(F)cc(F)c1)C(C)C1CN(C(=O)c3ccccc3)C(C)(C(=O)OC)C21 (stereo not drawn)	z-score	-2.52
C#C[C@H](O[Si](C#Cc1ccc(Oc2ccccc2)cc1)(C(C)C)C(C)C)c1ccccc1	z-score	-3.04
C=C[C@H](C)[C@@H](OC(=O)Nc1ccc(OC)cc1)c1ccc(O)c2ccccc12	z-score	-0.55
CC(C)C[C@@H]1NC(=O)[C@@H]2C[C@H](C(=O)NCc3ccc(F)cc3)[C@H](c3cccc(OCCO)c3)N2C1=O	z-score	1.44
C[N+](C)(C)CCCCNC(=O)[C@@H]1C[C@@H]2C(=O)N[C@@H](Cc3ccccc3)C(=O)N2[C@@H]1c1cccc(OCCO)c1	z-score	0.856
COC(=O)C(CC#Cc1ccc2c(c1)[C@]1(C(=O)N2)[C@H](C(=O)Nc2nc3ccccc3s2)[C@H]2C(=O)O[C@H](c3ccccc3)[C@H](c3ccccc3)N2[C@@H]1c1ccc(O)cc1)C(=O)OC	z-score	-0.0824
[N-]=[N+]=Nc1ccccc1[C@H]1OC(c2ccc(OCCCO)cc2)=N[C@@]1(CCS(=O)(=O)c1ccccc1)C(N)=O	z-score	-0.909

====

assay-text: MM1S cell viability effects, profiling panel, calcein-AM fluorescence, 48 h, basal (AID 1165);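 also: viability of MM1S multiple myeloma cells under basal unstimulated conditions; test concentration not given here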
experimental-parameters: higher = more signal
If the reported z-score equals or exceeds -1, assign TRUE. If not, assign FALSE.

compound	class-label
CCCCCCc1nc(-c2cc(C)c(OC)c(C)c2)cc2c1[Si](C(C)C)(C(C)C)OC2	FALSE
C=C(C(=O)CC[C@@H](OC(=O)c1cccnc1)c1ccccc1OCCO)C(C)C	FALSE
C[C@H]1C2[C@H](Cc3ccccc3)NC(=O)[C@]23C(=O)N[C@H](Cc2ccccc2)C(=O)N2CCC[C@H]2C(=O)NC/C=C\C/C=C/C3[C@@H]2O[C@]12C (stereo partly specified)	TRUE
CCCCCN1CC=CC23O[C@@H]4C=CCCOC(=O)C4[C@H]2C(=O)N(CCCCCO)[C@@H]3C1=O (stereo partly specified)	TRUE
COC(=O)[C@H](Cc1ccccc1)N1CC2=C[C@@H](C3CC3)n3c(=O)n(C)c(=O)n3[C@H]2[C@@H]1[C@@H](O)Cc1ccccc1	TRUE
CN(C)CCCCCCNC(=O)[C@@H]1C[C@@H]2C(=O)N[C@@H](Cc3ccccc3)C(=O)N2[C@@H]1c1ccc(O)cc1	FALSE
COC(=O)[C@@]1(Cc2ccc(OC)cc2)[C@H]2c3cc(C(=O)N(C)C)n(C)c3C[C@H]2CN1C(=O)c1ccccc1	FALSE
O=C1C2C=CC(C(O)CCc3ccccc3)N(Nc3ccccc3F)C2C(=O)N1c1ccccc1 (stereo unspecified)	TRUE
COCCOC(=O)N1C(=O)[C@@]2(c3cc(C#CCCO)ccc31)[C@H](C(=O)N1CCCCCCC1)[C@H]1C(=O)O[C@H](c3ccccc3)[C@H](c3ccccc3)N1[C@@H]2c1ccc(OCCO)cc1	TRUE
CC(C)N1C(=O)c2ccccc2[C@](C)(C(=O)NCCN2CCOCC2)[C@@H]1c1ccc(CO)cc1	FALSE
C=C(CCCC)C(=O)CC[C@@H](OC(=O)c1ccccc1-c1ccccc1C(=O)O)c1ccc(OCCO)cc1	FALSE
